# tested.system: human IL-17AA (Homo sapiens, UniProt Q16552)
# assay.comment: IL-8 release assay in human epithelial keratinocytes adult (HEKa)
# details: 3 ng/ml human IL-17AA + 10 ng/ml human TNFalpha, 68-72 h, IL-8 by HTRF, read-out: Rel EC50 L-8 release assay
pEC50: −log10 of the molar value.
outcome.measure: pEC50

Example compounds with recorded pEC50:
compound: CC(C)n1cc(-c2cccc(C(c3ccccc3)C(NC(=O)c3ccnn3C)C(=O)Nc3ccc(-c4cncn4C)cc3)c2)ccc1=O (single isomer, unassigned; diastereomer 4) [Example 234]
observed.result: 6.00 to 7.00
--
compound: Cc1n[nH]c(C)c1-c1ccc(NC(=O)[C@@H](NC(=O)C2(F)CC2)[C@@H]2CCc3ccc(-c4cnnc(C5CC5)c4)cc32)cc1
observed.result: 6.00 to 7.00

Tell us which pEC50 value is on record for CC(C)n1cc(-c2ccc3c(c2)[C@@H]([C@@H](NC(=O)c2ccnn2C)C(=O)Nc2ccc(-c4cncn4C)cc2)CCC3)ccc1=O
< 6.00

====

# tested.system: UniProt Q16552
# Sequence (Q16552 24-155) 1: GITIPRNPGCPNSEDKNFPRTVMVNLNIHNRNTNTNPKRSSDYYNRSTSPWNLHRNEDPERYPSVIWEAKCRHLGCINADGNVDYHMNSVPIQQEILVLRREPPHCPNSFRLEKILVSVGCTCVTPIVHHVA
# Sequence (Q16552 24-155) 2: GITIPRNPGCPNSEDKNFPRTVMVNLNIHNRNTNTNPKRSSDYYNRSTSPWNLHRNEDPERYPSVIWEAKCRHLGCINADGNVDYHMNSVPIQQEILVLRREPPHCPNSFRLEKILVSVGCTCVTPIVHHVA
# assay.comment: IL-8 release assay in human epithelial keratinocytes adult (HEKa)
# details: 3 ng/ml human IL-17AA + 10 ng/ml human TNFalpha, 68-72 h, IL-8 by HTRF, read-out: Rel EC50 L-8 release assay
# Description: Example: IL-8 release assay in human epithelial keratinocytes adult (HEKa) Keratinocytes were seeded at 3500 cells/well in 384-well ViewPlates (Perkin Elmer) in Epilife medium (Thermo Fisher) containing human keratinocyte growth supplement (HKGS) without hydrocortisone and incubated in a humid incubator at 37° C., 5% CO2, overnight. […] for test compounds, by the use of acoustic pipetting. […] Cytotoxicity was measured in the cell-containing […]
Listing of entries alongside the reported EC50.

molecule: Cc1nocc1C(=O)NC(Cc1cc(-c2ccc(=O)n(C(C)C)c2)ccc1Cl)C(=O)Nc1ccc(-c2ccnn2C)c(Cl)c1 (stereo not drawn)
observed.result: 100 to 1000 nM

Check the records and state EC50 for Cc1ncn(C)c1-c1ccc(NC(=O)[C@H](Cc2cc(-c3ccnc(N4CCOCC4)c3)ccc2Cl)NC(=O)C2(F)CC2)cc1
< 100 nM

State its EC50: Cc1nccn1-c1ccc(NC(=O)C(Cc2cc(-c3ccc(=O)n(C(C)C)c3)ccc2Cl)NC(=O)OC(C)(C)C)cc1 (stereo not drawn)
100 to 1000 nM

Read off the recorded EC50 for Cc1n[nH]c(C)c1-c1ccc(NC(=O)[C@@H](NC(=O)C2(F)CC2)[C@H](C)c2cccc(-c3ccnc(N4C[C@@H]5C[C@H]4CO5)c3)c2)cc1
< 100 nM

Determine from records and report EC50 for Cc1nccn1-c1ccc(NC(=O)[C@H](Cc2cc(-c3ccc(=O)n(C(C)C)c3)ccc2Cl)NC(=O)C2(F)CC2)cc1
100 to 1000 nM

Read the entry Cc1n[nH]cc1-c1ccc(NC(=O)[C@H](Cc2cc(-c3ccc(=O)n(C(C)C)c3)ccc2Cl)NC(=O)c2ccnn2C)cc1O and write its reported EC50.
< 100 nM
